src = PubChem BioAssay

Assay: viability gain of MRP-1-high H69AR cells under doxorubicin, pilot screen, MRP-1 activator project, CellTiter-Glo, duplicate (AID 807);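 note: compound pretreatment 18-22 h then 72 h combined with doxorubicin; 0% = doxorubicin alone and 100% = vehicle without doxorubicin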
Conditions: H69AR viability with doxorubicin, CellTiter-Glo luminescence; at 10 µM; stronger effect = higher value
Some compounds, each annotated with its measured viability increase.
Provide the reading as a plain figure in %.

Example entries and their recorded answers appear below.
- O=C(CCCOc1ccccc1)Nc1nnc(C2CCCO2)s1 (centres undefined): -2.89
- CCN(CC)CCOc1ccc(Br)cc1: -0.72

Query :: Consider the compound shown here: "CC(=O)NC(=S)c1c(N)n(Cc2ccccc2)c(=O)n(C)c1=O" What is its recorded viability increase?
Result :: -3.97

Query :: Given "CSc1nnc(Cn2c(=O)sc3ccccc32)n1CCc1ccccc1" , state its recorded viability increase.
Result :: -1.75

###

Experiment: Restrictive medium S. cerevisiae growth inhibition, OD615, pilot screen of yeast lifespan reduction project, restrictive growth control (AID 706);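 note: modified DeaD lifespan yeast strain shifted to restrictive glucose medium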
Details: OD615, 48 h, at 10 µM, stronger effect = higher value
observable: growth inhibition (%)
Hi! Could you send only the number? It should be in %, unit omitted.

Consider the following illustrative entries.
- CN1CCN(Cc2ccc(-c3ccc(Cl)cc3)o2)CC1: -22.6
- COc1ccc(OCC(=O)Nc2cc(OC)cc(OC)c2)cc1: 7.43
- CCOC(=O)N1CCc2c(sc(NC(=O)c3ccc(Cl)s3)c2C(N)=O)C1: 5.5
- CCCCN1C(=O)C2C(c3ccc(OC)cc3O)NC(CC(C)C)(C(=O)O)C2C1=O (stereo unspecified): -8.79
- C(=C\c1ccccc1)/CSc1nnc(-c2cccnc2)o1: 32.7
- Cc1ccc(-c2nn(-c3ccccc3)cc2C(=O)N2CCOCC2)cc1: -8.34
- Cc1cc(C(=O)NCC(c2ccco2)N(C)C)no1 (stereo unspecified): -10.7
- Cc1ccccc1NC(=O)c1ccc(S(=O)(=O)N(C)C)cc1: -2.52

Query :: Which growth inhibition value belongs to "Cn1c(=O)oc2cc(S(=O)(=O)NCCN3CCN(c4ccccc4F)CC3)ccc21" ?
Result :: 0.235

Query :: What value of growth inhibition has been recorded for this entry: O=C(NCc1ccc2c(c1)OCO2)C1CC(=O)N(CCc2ccccc2)C1 (stereo unspecified)
Result :: 0.755

Query :: Look at this compound and give its reported growth inhibition. "CCc1ccccc1NC(=O)c1cc(-c2cccc(O)c2)on1"
Result :: -5.59

###

Measured viability accompanies every entry in the list below.
Test: reducers of endogenous Her2 protein level, primary screen, SKBR3 breast tumor cells, AlphaScreen, ATP viability (AID 461);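 note: percent of carrier control wells set as 100% viability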
Conditions: 18-24 h, measured here: SKBR3 viability, ATP luminescence, at 10 µM
Form entry: value (%) — number only.

Recorded viability, per entry:
* NC(=O)c1ccccc1NC(=O)CCCN1C(=O)CCC1=O | 101
* CCOC(=O)CSc1nc(N)c2c3c(sc2n1)CCCC3 | 104
* O=C(CN1C(=O)CCSc2ccccc21)Nc1ccccc1 | 113

Query :: For CCS(=O)(=O)Nc1ccc(C(=O)CC2(O)C(=O)Nc3ccccc32)cc1 (centres undefined) , what is its reported viability?
Result :: 105

###

Test: Restrictive medium S. cerevisiae growth inhibition, OD615, pilot screen of yeast lifespan reduction project, restrictive growth control (AID 706);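 note: modified DeaD lifespan yeast strain shifted to restrictive glucose medium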
Settings: OD615, 48 h, at 10 µM, stronger effect = higher value
observable: growth inhibition (%)
# output: bare number, implied unit %

Solved cases (3 shown):
• CCCn1c2ccccc2c2cc(C(=O)O)ccc21 = -6
• CC(C)CCNC(=O)C1C2C=CC3(CN(Cc4ccccc4Cl)C(=O)C13)O2 (stereo not given) = -13.5
• CC1(C)CCCC2=C1CC1C(=O)N(Cc3cccnc3)C(=O)C1C2 (stereo not given) = -10.3

Query :: Which growth inhibition is listed for "CN(CCCC(=O)Nc1nccs1)S(=O)(=O)c1ccc(Cl)cc1" ?
Result :: 0.355

Query :: Data request, read-out growth inhibition, for "C=CCn1c(CCCNC(=O)CCC)nc2ccccc21"
Result :: 0.97

###

As shown below, each of these compounds has a reported growth inhibition value.
Assay: Restrictive medium S. cerevisiae growth inhibition, OD615, pilot screen of yeast lifespan reduction project, restrictive growth control (AID 706);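 note: modified DeaD lifespan yeast strain shifted to restrictive glucose medium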
Conditions: OD615, 48 h, at 10 µM, stronger effect = higher value
Numeric only. Scale: %

• Cc1[nH]c2ccc(-c3n[nH]c(=S)n3C)cc2c1C = -17.6
• COc1ccc(NC2CS(=O)(=O)CC2NCc2ccco2)cc1 (stereo not given) = -15.4
• CCOC(=O)Nc1cc(C)c(Cl)cc1OC = -0.98
• CC1(C)SCC(C(=O)O)N1C=O (stereo not given) = -6.9

Now for a further compound.
Query :: Find the recorded growth inhibition belonging to "O=C(COc1cccc2ccccc12)N1CCN(c2ccccc2)CC1" and report it.
Result :: -22
